These measurements were taken from patent US20140056903A1.

Provide the recorded t1/2 for the entries that follow.
targetEntity: T1, human GFRα3 expressed with a C-terminal mFc tag (human)
T1 construct: also called hGFRα3-mFc
T1 chain: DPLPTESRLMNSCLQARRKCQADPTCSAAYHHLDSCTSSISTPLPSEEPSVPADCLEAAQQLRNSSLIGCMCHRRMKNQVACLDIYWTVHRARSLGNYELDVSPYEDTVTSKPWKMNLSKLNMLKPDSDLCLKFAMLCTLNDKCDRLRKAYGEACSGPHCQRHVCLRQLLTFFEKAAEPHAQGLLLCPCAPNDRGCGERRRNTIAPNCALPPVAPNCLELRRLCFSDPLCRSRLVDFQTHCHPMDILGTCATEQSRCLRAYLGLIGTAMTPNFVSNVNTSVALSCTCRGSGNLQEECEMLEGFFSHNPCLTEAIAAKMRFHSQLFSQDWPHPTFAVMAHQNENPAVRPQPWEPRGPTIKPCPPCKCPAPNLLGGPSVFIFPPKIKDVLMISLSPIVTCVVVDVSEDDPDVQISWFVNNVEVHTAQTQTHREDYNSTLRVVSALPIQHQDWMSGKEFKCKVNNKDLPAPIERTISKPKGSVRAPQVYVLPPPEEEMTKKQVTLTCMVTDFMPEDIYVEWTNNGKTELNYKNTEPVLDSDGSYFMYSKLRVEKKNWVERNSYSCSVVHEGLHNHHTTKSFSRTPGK
assayRemarks: SPR, Ab captured, 25C
Numbers only, in h.

Before answering, review these 2 worked examples.
H4H2291S (antibody, human IgG4, V domains shown, human IgG4 Fc (H4H)) VH: EVQLVESGGGLVQPGESLRLSCAASGFTFSNYAMSWVRQAPGKGLEWVSVISGSGGSTYYADSVKGRFTMSRDNSKNTLYLQMNSLRAEDTAVYYCAKPPSRAARYFNYGMDVWGQGTTVTVSS VL: AIRMTQSPSSVSASVGDRVTITCRASQGISSWLAWYQQKPGKAPKLLIYAASSLQSGVPSRFSGSGSGTDFTLTISSLQPEDFATYYCQQANSFPFTFGGGTKVEIK: 40.3
H4H2295S (antibody, human IgG4, V domains shown, human IgG4 Fc (H4H)) VH: EVQLVESGGGLVQAGGSLRLSCVASGFTFSSYAMSWVRQAPGKGLEWVSAISGSGGSTYSADSVKGRFTISRDNSKNTLYLQMNSLRAEDTAVYYCTKPSSYSSSNFYYGMDVWGQGTTVTVSS VL: DIQMTQSPSSVSASVGDRVTITCRASQGISSWLAWYQQKPGKAPKLLIYTASSLQSGVPSRFSGSGSRTDFTLTISSLQPEDFATYYCQQTNSLPLTFGPGTKVEIK: 114

Prompt: I would be grateful if you could share the reported t1/2 for H4H2354S (antibody, human IgG4, V domains shown, human IgG4 Fc (H4H); also called H4H2354S-1) VH: QVQLVESGGGVVQPGRSLRLSCAASGFSFSDYVMHWVRQAPGKGLEWVASIWFDGSNEFYADSVKGRFTISRDNSKNTLFLQMNSLRAEDTAVYYCAKKGVLVATSAFDIWGQGTMVTVSS VL: DIQLTQSPSSLSASVGDRVTITCRASQSINNYLNWYHQKPGKAPKLLIYAASSLQSGVPSRFSGSGSGTDYTLTISSLQPEDFGNYYCQQSYRTSMYTFGQGTKVEIK .
Response: 17.6
